- Test system: CDKL1
- test.settings: concentration: 1 μM, replicates: in singlicate; n = 1;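 note: KINOMEscan kinase panel screen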
reported.property: %Inh
Please answer using a numeric value trailed by its unit.

Exercise: Input `NS(=O)(=O)CCc1cccc(Nc2nccc(-c3c(-c4cccc(NC(=O)c5c(F)cccc5F)c4)nn4ccccc34)n2)c1` , output reported %Inh.
Solution: 0%

Exercise: Tell us which %Inh value is on record for `C[C@@H](Oc1cc(-n2cnc3ccc(NC(=O)NC(C)(C)C)cc32)sc1C(N)=O)c1ccccc1Cl`
Solution: 14%

Exercise: Answer with reported %Inh of `CN(C(=O)c1ccc(-c2cc(-c3c[nH]nc3-c3ccccn3)ccn2)cc1)C1CCOCC1`
Solution: 21%

Exercise: For the molecule `Cl.Nc1ncnc2occ(-c3ccc(NC(=O)Nc4cc(C(F)(F)F)ccc4F)cc3)c12` , give its measured %Inh value.
Solution: 7%

Exercise: Answer with the recorded %Inh of `O=C1NC(=O)C(N2CCc3ccccc32)=C1c1cccc(Cl)c1` only.
Solution: 0%

Exercise: Report %Inh, nothing else, for this molecule: `N#Cc1ccc(-c2cc(-c3c[nH]nc3-c3ccccn3)ccn2)cc1`
Solution: 8%

Exercise: Identify %Inh associated with the molecule `CC(=O)Nc1ccc(COc2ccc(Nc3ccnc4cc(-c5ccccn5)ccc34)cc2)cc1.Cl`
Solution: 7%

Exercise: Provide one value: measured %Inh of `Nc1nccc(-c2c(-c3ccc(F)cc3)ncn2C2CCN(CC(F)(F)F)CC2)n1`
Solution: 18%

###

Give measured %Inh for each item. Keep answers brief.
- Test system: PRP4
- test.settings: concentration: 1 μM, replicates: in singlicate; n = 1
API: value field is a number in %; no unit string.

Exercise: Give the reported %Inh for this molecule. `Cc1cccc(-c2nc(-c3ccc(S(C)(=O)=O)cc3)sc2-c2ccncc2)c1`
Solution: 6

Exercise: Report measured %Inh; entry is Cc1ccc(NC(=O)c2ccnc(N3CCN(C)CC3)c2)cc1-c1ccc(C(=O)NCC2CC2)cc1 [GW775604]
Solution: 0

Exercise: Look up and state reported %Inh for Cc1c2ccc(N(C)c3ccnc(Nc4cccc(S(N)(=O)=O)c4)n3)cc2nn1Cc1ccccc1.Cl.Cl [GW787226]
Solution: 0

Exercise: Specify reported %Inh for the molecule shown: O=c1cc(N2CCOCC2)nc2n(Cc3cccc(F)c3)ccn12 [GSK2297430]
Solution: 0

Exercise: Given the molecule Cc1cccc(Cn2ccn3c(=O)cc(N4CCOCC4)nc23)c1 [GSK2297542] , write its reported %Inh.
Solution: 1

###

- Test system: JAK2(JH1domain-catalytic)
- test.settings: concentration: 1 μM, replicates: in singlicate; n = 1
Outcome: criterion met for %Inh of at least 6%; criterion not met for anything lower.

Exercise: Is the recorded value of %Inh equal to or greater than 6% for this molecule? `CC(C)(C)n1cnc2c(N)ncnc21`
Solution: criterion not met

Exercise: Hi team, for `O=C1Cc2cc(Nc3nc(NCc4cccc(S(=O)(=O)C(F)(F)F)c4)ncc3C(F)(F)F)ccc2N1` , is the recorded %Inh at or above 6%?
Solution: criterion met

Exercise: Quick check, %Inh >= 6%? `Cc1c2ccc(N(C)c3ccnc(Nc4cccc(S(N)(=O)=O)c4)n3)cc2nn1Cc1ccccc1.Cl.Cl`
Solution: criterion met

Exercise: Identify whether the reported %Inh of the following molecule is 6% or greater: `Cn1ccc2ncnc(Oc3ccc(NC(=O)Nc4ccncc4)c(Cl)c3)c21`
Solution: criterion not met

Exercise: Dear colleague, could you confirm whether `CCc1ccnc(/C=C/c2n[nH]c3cc(Sc4ccccc4C(=O)NC)ccc23)c1` has %Inh at or above 6%?
Solution: criterion not met

Exercise: Kindly determine if %Inh recorded for `[2H]C([2H])(c1cccc(C(F)(F)F)c1C)n1ccn2c(=O)nc(N3CCOCC3)cc12` is above or exactly 6%.
Solution: criterion not met

Exercise: State whether the measured %Inh reaches 6%, counting equality as reaching it, for `Cc1ccc(C(=O)NCC(N)=O)cc1-n1c(C)cc(OCc2ccc(F)cc2F)c(Br)c1=O`
Solution: criterion not met

Exercise: Could you tell me if the measured %Inh of `COCCNC(=O)c1ccc(-c2cc(C(=O)NC3CC3)cc(F)c2C)cc1` reaches 6% or more?
Solution: criterion met

Exercise: Form field: %Inh at least 6%? Entry: `Nc1nccc(-c2c(-c3ccc(F)cc3)ncn2C2CCN(CC(F)(F)F)CC2)n1`
Solution: criterion not met

Exercise: Reported %Inh at or above 6%? NCC(NC(=O)c1cc(-c2cn[nH]c2)c(-c2ccnc3[nH]ccc23)s1)c1ccccc1.O=C(O)C(F)(F)F.O=C(O)C(F)(F)F (centres unmarked)
Solution: criterion met

Exercise: Does %Inh meet or surpass 6% for `CN(C1=C(c2ccccc2)C(=O)NC1=O)c1ccccc1` ?
Solution: criterion not met

Exercise: Could you tell me if the measured %Inh of `NS(=O)(=O)c1cccc(-c2ccc3nccc(-c4cccc(S(N)(=O)=O)c4)c3c2)c1` reaches 6% or more?
Solution: criterion met

Exercise: Confirm if %Inh reported for the molecule `CCc1nc(-c2cccc(C)c2)c(-c2ccnc(NCc3ccccc3)c2)s1` is 6% or above.
Solution: criterion not met

Exercise: Determine whether measured %Inh meets or exceeds 6% for `COc1cc2c(cc1OCCN1CCN(C)CC1)ncc1c3ccc(C#N)cc3[nH]c21`
Solution: criterion met

Exercise: Exam item: decide whether the reported %Inh for `Cc1cccc(-c2nc(Nc3ccc4ncsc4c3)c3ccccc3n2)n1` is at least 6%.
Solution: criterion not met

Exercise: Exam item: decide whether the reported %Inh for `Cc1cccc(Cn2ccn3c(=O)cc(N4CCOCC4)nc23)c1` is at least 6%.
Solution: criterion not met

Exercise: Kindly determine if %Inh recorded for `COc1ccc(S(=O)(=O)NC2CCN(c3cc(C)nc(Nc4cccc(C#N)c4)n3)CC2)cc1.O=C(O)C(F)(F)F` is above or exactly 6%.
Solution: criterion not met

Exercise: Answer whether %Inh of `Nc1nc(-c2ccc3c(N)n[nH]c3c2)cc(N2CCCC2)n1` is greater than or equal to 6%.
Solution: criterion not met

Exercise: // inclusive: %Inh at least 6%? input: `O=C1NC(=O)C(N2CCc3ccccc32)=C1c1cccc(Cl)c1`
Solution: criterion not met

Exercise: Would you say COc1ccc(CNC(=O)NC2CCN(c3ccnc(Nc4ccc(OC)cc4)n3)C2)cc1 (centres unmarked) shows %Inh at minimum 6%?
Solution: criterion met

Exercise: Quick check: does `O=c1cc(N2CCOCC2)nc2n(Cc3cccc(C(F)(F)F)c3)ccn12` have %Inh greater than or equal to 6%?
Solution: criterion not met

Exercise: Decide: %Inh of COc1cc(Nc2nccc(N3CCC(NC(=O)c4cccc(NC(C)=O)c4)C3)n2)cc(OC)c1OC (centres unmarked) >= 6%?
Solution: criterion met

Exercise: Hi team, for `N#Cc1ccc(-c2cc(-c3c[nH]nc3-c3ccccn3)ccn2)cc1` , is the recorded %Inh at or above 6%?
Solution: criterion met

Exercise: Determine whether measured %Inh meets or exceeds 6% for `c1ccc(-c2n[nH]cc2-c2ccnc3ccccc23)nc1`
Solution: criterion not met

Exercise: Is the recorded value of %Inh equal to or greater than 6% for this molecule? `NS(=O)(=O)CCc1cccc(Nc2nccc(-c3c(-c4cccc(NC(=O)c5c(F)cccc5F)c4)nn4ccccc34)n2)c1`
Solution: criterion not met

Exercise: Check this molecule for %Inh at or above 6%: COc1ccc(Nc2nccc(N3CCC(NC(=O)Nc4cc(C)ccc4C)C3)n2)cc1 (centres unmarked)
Solution: criterion not met

Exercise: Decide: %Inh of `CN(C(=O)c1ccc(-c2cc(-c3c[nH]nc3-c3ccccn3)ccn2)cc1)C1CCOCC1` >= 6%?
Solution: criterion not met

Exercise: Confirm if %Inh reported for the molecule `NS(=O)(=O)c1cccc(-c2ccc3ncc(N4CCOCC4)nc3c2)c1` is 6% or above.
Solution: criterion not met

Exercise: Threshold query (%Inh >= 6%) on `COc1ccc(COc2cc(-n3cnc4ccccc43)sc2C(N)=O)cc1`
Solution: criterion not met

Exercise: Answer whether %Inh of `O=C(NCCNc1ccnc(Nc2ccc(F)cc2)n1)Nc1ccccc1F` is greater than or equal to 6%.
Solution: criterion met

Exercise: Dear colleague, could you confirm whether `CNc1ncnc2[nH]ncc12` has %Inh at or above 6%?
Solution: criterion met

Exercise: Confirm if %Inh reported for the molecule `O=c1cc(N2CCOCC2)nc2n(Cc3cccc(F)c3)ccn12` is 6% or above.
Solution: criterion not met

Exercise: Decide: is the reported value of %Inh for `COc1cc2c(cc1OC[C@@H](O)CO)ncc1c3ccc(C#N)cc3[nH]c21` equal to or greater than 6%?
Solution: criterion not met

Exercise: Answer whether %Inh of `Cl.Nc1ncnc2occ(-c3ccc(NC(=O)Nc4cc(C(F)(F)F)ccc4F)cc3)c12` is greater than or equal to 6%.
Solution: criterion met
